Data provenance: paper PMC12621043

target: PCTK1A (Homo sapiens); construct: purchased in-house DSF kinase panel (SGC-style construct names; the trailing letter is the construct ID); assay: DSF Tm panel; assay type: binding; settings: 10 μM compound
Sequence (Q00536 163-478): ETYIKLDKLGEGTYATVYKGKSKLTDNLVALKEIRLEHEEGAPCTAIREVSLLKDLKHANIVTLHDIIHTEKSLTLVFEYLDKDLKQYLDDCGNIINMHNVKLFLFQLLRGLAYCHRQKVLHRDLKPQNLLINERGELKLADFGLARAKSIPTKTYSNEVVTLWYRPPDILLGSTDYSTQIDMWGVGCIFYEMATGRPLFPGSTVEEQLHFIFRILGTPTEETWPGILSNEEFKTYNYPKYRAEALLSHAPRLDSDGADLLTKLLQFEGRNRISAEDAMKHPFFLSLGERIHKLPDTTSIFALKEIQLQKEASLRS
Classification field: enter fulfilled for ΔTm at 10 µM values not below 1 °C, not fulfilled for values below it.

As a guide, the following entries are already answered.
stdin: Identify whether the reported ΔTm at 10 µM of the following compound is 1 °C or greater: O=C(NCc1ccccc1C(F)(F)F)Nc1ccc2cc1OCCOCCNc1ccn3ncc-2c3n1 [compound 27]
stdout: fulfilled

stdin: Try the compound Cc1cc(Cl)ccc1CNC(=O)Nc1ccc2cc1OCCOCCNc1ccn3ncc-2c3n1 [compound 23]
stdout: fulfilled

stdin: Try the compound O=C(NCc1ccccc1)Nc1ccc2cc1OCCOCCNc1ccn3ncc-2c3n1 [compound 16]
stdout: fulfilled

stdin: Try the compound COc1cc(CNC(=O)Nc2ccc3cc2OCCOCCNc2ccn4ncc-3c4n2)ccc1F [compound 33]
stdout: fulfilled

stdin: Try the compound C[C@H](NC(=O)Nc1ccc2cc1OCCOCCNc1ccn3ncc-2c3n1)c1ccccc1 [compound 34]
stdout: not fulfilled

Here is another compound to look at.
stdin: Identify whether the reported ΔTm at 10 µM of the following compound is 1 °C or greater: O=C(NCc1ccc(Cl)cc1F)Nc1ccc2cc1OCCOCCNc1ccn3ncc-2c3n1 [compound 21]
stdout: fulfilled
